# credit: PubChem BioAssay (NCATS)

test: qHTS for Inhibitors of the Aldehyde Dehydrogenase Family (ALDH1A2, ALDH1A3, ALDH2, ALDH3A1) (AID 2061307); details: ALDH inhibition qHTS; series mostly up to 50.3 µM; further: nearly all actives have a fitted effect of over 50% in size
Inconclusive results are not listed. Activity calls are given as the source filed them. The call rests on the fitted dose curve; in most records, active means well fitted inhibition curve with a large enough effect; inconclusive means small, poorly fitted or top-dose-only effect; inactive means no such curve, though single readings can be large or run the other way.
Thanks in advance; please answer with one of these: yes (1) for active, no (0) for inactive

A selection of reference data follows.
>  <COMPOUND>
COc1cc(Nc2ncc(F)c(Nc3ccc4c(n3)NC(=O)C(C)(C)O4)n2)cc(OC)c1OC

>  <CATEGORY_LABEL>
no (0)

$$$$
>  <COMPOUND>
COc1cccc(-c2cc(C(=O)NCC(F)F)c3cnn(C)c3n2)c1

>  <CATEGORY_LABEL>
no (0)

$$$$

Task item: // param item: N#Cc1c(-c2csc(-c3no[n+]([O-])c3C#N)c2)no[n+]1[O-] ; yields the recorded call
Reply: yes (1)

Task item: Dear all, I need the recorded test outcome for COc1cccc(CNc2ccc([S+](=O)([O-])Nc3cc4ccccc4s3)cc2)c1O , thank you.
Reply: no (0)

Task item: Called result for Cc1cccc(S(=O)(=O)NC2CCN(C#N)C2)c1 (stereo not given)
Reply: no (0)

---

target: Aldehyde dehydrogenase, mitochondrial (Homo sapiens) (UniProt P05091); assay: qHTS for Inhibitors of the Aldehyde Dehydrogenase Family (ALDH2) Primary screen (AID 2061308); settings: ALDH2 enzyme inhibition qHTS, 1536-well; series mostly up to 56 µM;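 further: plate controls were vehicle for no effect and reference inhibitor for full effect; nearly all actives have a fitted effect of over 55% in size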
Inconclusive results are not listed. Active and inactive are the calls of the source. Calls come from the whole dose curve; as a rule, active = well fitted inhibition curve with a large enough effect; inconclusive = small, poorly fitted or top-dose-only effect; inactive = flat fitted curve, though single readings scatter.
MEASUREMENT_NAME: activity change, negative = inhibition

Reference set (4 entries):
>  <COMPOUND>
COC1CC(=O)CCC(C)OC(=O)CC1O (stereo not given)

>  <activity change, negative = inhibition>
inactive

$$$$
>  <COMPOUND>
C/C(=C\CCC(C)C1CC(O)C2(C)C3CCC4C(C)(C)C(OC5OCC(O)C(O)C5O)CCC45CC35CC(O)C12C)C(=O)O (stereo not given)

>  <activity change, negative = inhibition>
inactive

$$$$
>  <COMPOUND>
c1cncc(-c2ccc(CNc3nc(C4CCCC4)nc4ccccc34)cc2)c1

>  <activity change, negative = inhibition>
inactive

$$$$
>  <COMPOUND>
O=C(O)c1cc(-c2ccccc2)nc2ccccc12

>  <activity change, negative = inhibition>
inactive

$$$$

# evaluate next
Task item: Please give the measured activity change, negative = inhibition for this compound: COc1cc(N2CCC(N3CCN(C)CC3)CC2)ccc1Nc1ncc(Cl)c(Nc2ccccc2P(C)(C)=O)n1
Reply: inactive

---

test: BET inhibitor-based combinations targeting novel dependencies in MECOM-rearranged (r) AML: AML-191 cell line (AID 2202236; further: nearly all actives have a fitted effect of over 35% in size); conditions: AML-191 viability, CellTiter-Glo luminescence, 48 h; series mostly up to 46 µM
Inconclusive results are not listed. Active and inactive are the calls of the source. Calls follow the shape of the dose curve; as a rule, active = well fitted inhibition curve with a large enough effect; inconclusive = small, poorly fitted or top-dose-only effect; inactive = flat fitted curve, though single readings scatter.
Answer with one of the outcomes active, inactive

// known answers, use as guide
>  <MOLECULE>
CN(C)CC/C=C1/c2ccccc2COc2ccc(CC(=O)O)cc21

>  <CATEGORY_LABEL>
inactive

$$$$
>  <MOLECULE>
CC[C@@]1(O)C(=O)OCc2c1cc1n(c2=O)Cc2cc3cc(O)ccc3nc2-1

>  <CATEGORY_LABEL>
active

$$$$
>  <MOLECULE>
OCc1ccc(-c2ccc(-c3ccc(CO)s3)o2)s1

>  <CATEGORY_LABEL>
active

$$$$
>  <MOLECULE>
Cc1csc(NC(=O)c2sc3nc4c(c(C(F)(F)F)c3c2N)CCC4)n1

>  <CATEGORY_LABEL>
inactive

$$$$
>  <MOLECULE>
Cc1cc(Nc2ncnc3ccc(-c4ccc(CNCCS(C)(=O)=O)o4)cc23)ccc1Oc1ccn2ncnc2c1

>  <CATEGORY_LABEL>
inactive

$$$$

Task item: // outcome(item) with item = Cc1cc(C)c(/C=C2\C(=O)Nc3ccccc32)[nH]1
Reply: active

Task item: Entry CN1CCN(c2cc(C(=O)Nc3ccc4c(c3)-c3c(c(C(N)=O)nn3-c3ccc(F)cc3)CC4)c(Cl)cn2)CC1 : call = ?
Reply: active
